# experimentalSystem: FGFR2 (Homo sapiens)
# Construct: made in house; host or cells: E. coli derived from BL21, infected with T7 phage
# Sequence (P21802 22-821): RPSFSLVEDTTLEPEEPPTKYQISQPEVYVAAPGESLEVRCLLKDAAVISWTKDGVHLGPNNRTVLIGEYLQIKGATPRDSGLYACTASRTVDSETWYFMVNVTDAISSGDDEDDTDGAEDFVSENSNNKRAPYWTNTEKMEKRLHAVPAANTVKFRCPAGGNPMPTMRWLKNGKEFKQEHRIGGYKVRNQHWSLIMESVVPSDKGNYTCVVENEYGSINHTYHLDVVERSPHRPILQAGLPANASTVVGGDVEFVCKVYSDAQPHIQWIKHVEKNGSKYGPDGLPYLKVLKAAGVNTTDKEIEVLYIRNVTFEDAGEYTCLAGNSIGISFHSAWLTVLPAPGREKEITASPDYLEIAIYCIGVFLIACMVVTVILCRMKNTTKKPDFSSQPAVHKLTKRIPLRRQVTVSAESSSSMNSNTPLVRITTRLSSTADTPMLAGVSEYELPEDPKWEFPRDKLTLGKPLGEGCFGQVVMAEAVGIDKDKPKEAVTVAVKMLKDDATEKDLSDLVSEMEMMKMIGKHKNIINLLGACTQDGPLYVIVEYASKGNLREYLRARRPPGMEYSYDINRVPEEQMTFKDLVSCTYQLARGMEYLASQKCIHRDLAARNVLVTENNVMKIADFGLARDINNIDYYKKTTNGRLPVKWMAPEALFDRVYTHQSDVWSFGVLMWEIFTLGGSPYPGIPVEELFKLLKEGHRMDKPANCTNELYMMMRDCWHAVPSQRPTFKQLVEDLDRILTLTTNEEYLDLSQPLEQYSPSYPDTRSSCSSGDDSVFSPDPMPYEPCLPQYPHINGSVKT
# testName: Kinase binding assay (kinase-tagged T7 phage, qPCR), Kd
# conditionSet: read-out: FGFR2 (Kd nM)
measuredParameter: Kd

Past entries and their recorded results:
C[C@@H](Oc1ccc2[nH]nc(-c3cnc(O[C@@H]4CCOC4)c(C#N)c3)c2c1)c1c(Cl)cncc1Cl [Example 134] = 0.1 to 100 nM
COc1cc(-c2n[nH]c3ccc(O[C@H](C)c4c(C)cnnc4C)cc23)cc2c1OC1(CCN(C(C)C)CC1)OC2 [Example 125] = 0.1 to 100 nM
C[C@@H](Oc1ccc2[nH]nc(-c3ccc4c(c3)CCC3(CCNCC3)O4)c2c1)c1c(Cl)cncc1Cl [Example 104] = 0.1 to 100 nM
CCN1CCC(Oc2ncc(-c3n[nH]c4ccc(O[C@H](C)c5c(Cl)cncc5Cl)cc34)cc2C#N)CC1 [Example 119] = 0.1 to 100 nM
CCN1CCC2(CC1)CC(O)c1cc(-c3n[nH]c4ccc(O[C@H](C)c5c(C)cnnc5C)cc34)ccc1O2 (stereo partly shown) [Example 107] = 0.1 to 100 nM

IN: Recorded Kd for Cc1cnnc(C)c1[C@@H](C)Oc1ccc2[nH]nc(-c3cc(C#N)cc(N4CCN(C)CC4)c3)c2c1 [Example 62] , please?
OUT: > 1000 nM

IN: Recorded Kd for CC(C)OC(=O)Nc1ccc(-c2n[nH]c3ccc(O[C@H](C)c4c(Cl)cncc4Cl)cc23)cn1 [Example 27] , please?
OUT: 250 to 1000 nM

Just for reference, patent US20240316022A1 is where these values come from.
